In this section, each of the compounds is paired with its reported cell viability (log2).
test system: A673/TR/shEF; assay: cell viability (LOESS-normalised, relative to median of negative controls) (log2 ratio); higher = more viable cells (less compound effect), active = hit call of the paper (over 3 MAD below the median); conditions: 2.5 µM; library screen: screen1; EWS-FLI1 expression: low (doxycycline-induced shRNA knockdown); treatment time: 72 h
Among all 3,200 compounds or so, about 300 (9.4%) showed activity. What follows is part of a selection rich in actives, with near analogues and random picks from the rest.

>>> result("COC1CCC2(C)C(CCC3C2CCC2(C)C(C(C)CCCC(C)C)CCC32)C1 (configuration not stated)")
"0.091 (inactive)"
>>> result("CC(=O)O[C@H]1C[C@@H](OC(C)=O)C(C)(C)C2CC(=O)[C@]3(C)C(CC[C@@]4(C)[C@H](c5ccoc5)OC(=O)[C@H]5O[C@]543)[C@]21C (some centres not stated)")
"0.123 (inactive)"
>>> result("C=C(C)C1Cc2c(cc3oc(CO)cc(=O)c3c2O)O1 (configuration not stated)")
"0.013 (inactive)"
>>> result("CN(C)c1ccc(C(=C2C=CC(=[N+](C)C)C=C2)c2ccc(N(C)C)cc2)cc1")
"0.106 (inactive)"
>>> result("CC1=C2C(O)C(=O)OC3CC4C(C)(C)C(=O)CCC4(C)C(CC1)C23C (configuration not stated)")
"0.166 (inactive)"

Now turn to the next compound.
Q) Determine from records and report cell viability (log2) for NC(N)=NCCNS(=O)(=O)c1cccc2cnccc12
A) 0.117 (inactive)

----------
test system: A673/TR/shEF; assay: cell viability (LOESS-normalised, relative to median of negative controls) (log2 ratio); higher = more viable cells (less compound effect), active = hit call of the paper (over 3 MAD below the median); details: 2.5 µM; library screen: screen1; EWS-FLI1 expression: high (no doxycycline); treatment time: 72 h
The campaign covered roughly 3,200 compounds. About 300 (9.4%) showed activity. What follows is part of a selection rich in actives, with near analogues and random picks from the rest.
measurement-name: cell viability (log2)
Respond using a number only.

>>> numeric_value("O=C(c1cc(-c2ccccc2)nc2ccccc12)N1CCN(c2ccccc2)CC1")
0.113

Q) Determine from records and report cell viability (log2) for Nc1ccc(S(=O)(=O)Nc2ccccn2)cc1
A) 0.18

Q) Determine from records and report cell viability (log2) for CC1(C)S[C@@H]2[C@H](NC(=O)[C@H](N)c3ccc(O)cc3)C(=O)N2[C@H]1C(=O)O
A) 0.14

Q) Determine from records and report cell viability (log2) for CC1(C)CC[C@]2(C(=O)O)[C@H](O)C[C@]3(C)C(=CC[C@@H]4[C@@]5(C)CC[C@H](O)C(C)(C)[C@@H]5CC[C@]43C)[C@@H]2C1
A) 0.0945

Q) Determine from records and report cell viability (log2) for C=C1c2c(Cl)ccc(O)c2C(O)=C2C(=O)[C@]3(O)C(O)=C(C(N)=O)C(=O)[C@@H](N(C)C)[C@@H]3[C@@H](O)[C@H]12.O=C(O)c1cc(S(=O)(=O)O)ccc1O
A) -0.126

Q) Determine from records and report cell viability (log2) for CCSc1nnc(-c2ccc([N+](=O)[O-])cc2)n1-c1ccccc1
A) 0.0629

Q) Determine from records and report cell viability (log2) for CN(C)c1ccc(O)c2c1C[C@H]1C[C@H]3[C@H](N(C)C)C(=O)C(C(N)=O)=C(O)[C@@]3(O)C(=O)C1=C2O
A) -0.0936

Q) Determine from records and report cell viability (log2) for NC(=O)c1ncn([C@@H]2O[C@H](CO)[C@@H](O)[C@H]2O)c1O
A) 0.0737

Q) Determine from records and report cell viability (log2) for Nc1ccc(S(=O)(=O)Nc2ncccn2)cc1
A) 0.146

Q) Determine from records and report cell viability (log2) for CC(=O)c1cc2c(cc1O)OC(C)(C)C=C2
A) 0.126

Q) Determine from records and report cell viability (log2) for Nc1ccn([C@@H]2O[C@H](CO)[C@@H](O)[C@H]2O)c(=O)n1
A) 0.237

Q) Determine from records and report cell viability (log2) for O=C(c1cc(-c2ccccc2)nc2ccccc12)N1CCCC1
A) 0.129

Q) Determine from records and report cell viability (log2) for Nc1ccn([C@@H]2O[C@H](CO)[C@@H](O)[C@@H]2O)c(=O)n1
A) -0.85
